# study-system: UniProtKB P21397
# Sequence (P21397 whole entry): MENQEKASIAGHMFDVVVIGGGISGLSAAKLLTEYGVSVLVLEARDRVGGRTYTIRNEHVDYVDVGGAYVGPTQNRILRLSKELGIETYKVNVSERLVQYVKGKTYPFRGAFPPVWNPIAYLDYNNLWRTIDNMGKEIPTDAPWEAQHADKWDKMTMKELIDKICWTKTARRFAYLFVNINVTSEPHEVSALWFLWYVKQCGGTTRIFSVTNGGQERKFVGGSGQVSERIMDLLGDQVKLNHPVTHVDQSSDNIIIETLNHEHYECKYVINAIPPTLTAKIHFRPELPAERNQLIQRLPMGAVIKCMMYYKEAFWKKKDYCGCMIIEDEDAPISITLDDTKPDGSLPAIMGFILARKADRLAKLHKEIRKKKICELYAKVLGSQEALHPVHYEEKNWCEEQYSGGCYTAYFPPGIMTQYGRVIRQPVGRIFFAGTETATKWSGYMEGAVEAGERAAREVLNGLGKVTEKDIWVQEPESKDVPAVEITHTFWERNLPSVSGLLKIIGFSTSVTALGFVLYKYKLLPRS
# experiment-description: Measurement of MAO-A inhibitory activity (MAO-Glo Assay)
# Format: biochemical
# settings: dihydrochloride
pIC50: −log10 of the molar value. Where a name gives a salt, the structure may show the parent alone.
Entries and their measured pIC50 follow.
measurement-name: pIC50

[[record]]
compound = "Cc1nnc(NC(=O)c2csc(C3CC3NCC3CCOCC3)c2)s1 (single isomer, unassigned) [Example 40, dihydrochloride]"
study_system = "UniProtKB P21397"
result_comparator = "<"
experimental_result = 4.00

[[record]]
compound = "Cc1nnc(NC(=O)c2csc(C3CC3NCC3CCOCC3)c2)s1 (single isomer, unassigned) [Example 41, dihydrochloride]"
study_system = "UniProtKB P21397"
result_comparator = "="
experimental_result = 4.17


Source of measurements: patent US9487511B2
